Below: a set of entries, each annotated with reported GI50.
- Test system: MDA-MB-231
- test-name: NCI tumour cell line growth inhibition, 48 h
Active and inactive are the calls of the source. Rule as the data show it: active = GI50 up to about 1.1 µM and inactive = higher.
endpoint-label: GI50

>  <compound>
C[C@@H]1C(=O)O[C@@H]2C[C@@]1(C)[C@@H]1C(=O)C3(O)OC14C2(C)OC(=O)[C@@]4(O)CCC1C3C(O)C=C2CC=CC(=O)[C@@]21C (stereo not given in full)

>  <observed-value>
28.8 µM (inactive)

$$$$
>  <compound>
O=C1CCCC1C(O)(C(F)(F)Cl)C(F)(F)Cl (stereo not given)

>  <observed-value>
> 10 µM (inactive)

$$$$
>  <compound>
CC(C)[C@@H]1CC[C@@H](C)C[C@H]1OC(=O)/C=C1\C(C(=O)O[C@@H]2C[C@H](C)CC[C@H]2C(C)C)[C@H]2C=C[C@@H]1O2 (stereo not given in full)

>  <observed-value>
87.5 µM (inactive)

$$$$
>  <compound>
CN1CN(c2ccccc2)C2(CCN(CCCC3(c4cccs4)OCCO3)CC2)C1=O

>  <observed-value>
> 100 µM (inactive)

$$$$
>  <compound>
CC(NNC(=O)c1ccncc1)c1cccc(C(F)(F)F)c1 (stereo not given)

>  <observed-value>
> 100 µM (inactive)

$$$$
>  <compound>
CC1CCC2C(C)(C)CC3(C)CCC1C23O (stereo not given)

>  <observed-value>
16.2 µM (inactive)

$$$$
>  <compound>
CSc1nc(Nc2cccc(C(F)(F)F)c2)c2c(N)nn(C)c2n1

>  <observed-value>
> 100 µM (inactive)

$$$$
>  <compound>
O=C1CC(=O)NC(NN2C(=O)/C(=C/c3ccc(Cl)c(Cl)c3)N=C2c2ccccc2)=N1

>  <observed-value>
17.1 µM (inactive)

$$$$
>  <compound>
CN1C(=O)N(C)C2(CCN(CC(CC3OCCO3)c3ccc(F)cc3)CC2)C1=O (stereo not given)

>  <observed-value>
> 100 µM (inactive)

$$$$
>  <compound>
Clc1ccc(/C=C/c2nc(-c3ccccc3)cn3c2nc2ccccc23)cc1Cl

>  <observed-value>
> 100 µM (inactive)

$$$$
>  <compound>
O=C(O)c1cccc2cccc(-c3cccc4cccc(C(=O)O)c34)c12

>  <observed-value>
> 100 µM (inactive)

$$$$
>  <compound>
COc1ccc2cc(C(=O)NCCCNC(=O)c3ccc4cc(OC)ccc4c3)ccc2c1

>  <observed-value>
21.1 µM (inactive)

$$$$
>  <compound>
COC(=O)C1CCC(=O)N1CN(C(C)=O)c1cccc(O)c1 (stereo not given)

>  <observed-value>
> 100 µM (inactive)

$$$$
>  <compound>
O=C1/C(=N\n2c(S)nnc2-c2ccncc2)c2cc(Cl)ccc2N1CN1CCCCC1

>  <observed-value>
> 100 µM (inactive)

$$$$
>  <compound>
O=C(CCc1ccc(O)cc1)NCCc1cccc(O)c1

>  <observed-value>
> 50 µM (inactive)

$$$$
>  <compound>
O=C(Cn1c(=O)ccn(C2OC(CO)C(O)C2F)c1=O)c1ccc(F)cc1 (stereo not given)

>  <observed-value>
> 100 µM (inactive)

$$$$
>  <compound>
CC1(C)CC23CC(C)(C)c4cccc(c42)OCc2ccc4ccc5ccc(nc5c4n2)COc2cccc1c23

>  <observed-value>
> 50 µM (inactive)

$$$$
>  <compound>
O=c1[nH]c2ccc(CC(=S)N3CCOCC3)cc2o1

>  <observed-value>
> 100 µM (inactive)

$$$$
>  <compound>
S=C(NCc1ccccc1)N/N=C/c1ccccn1

>  <observed-value>
1.24 µM (inactive)

$$$$
>  <compound>
Clc1ccccc1C(Nc1cnccn1)Nc1cnccn1

>  <observed-value>
> 100 µM (inactive)

$$$$
>  <compound>
CCC(=O)OCc1ccc2oc(=O)c(C(=O)Oc3cncc(Cl)c3)cc2c1

>  <observed-value>
> 100 µM (inactive)

$$$$
>  <compound>
O=C(O)C(CSC(c1ccccc1)(c1ccccc1)c1ccccc1)/N=C/c1cccs1 (stereo not given)

>  <observed-value>
1.57 µM (inactive)

$$$$
>  <compound>
CCCCCC(C)C[C@H]1CO[C@H](c2ccc[nH]2)N[C@H]1C(=O)OC (stereo not given in full)

>  <observed-value>
> 100 µM (inactive)

$$$$
>  <compound>
CCOC(=S)SC/C(=N\OC(C)(C)OC)c1ccccc1

>  <observed-value>
> 100 µM (inactive)

$$$$
>  <compound>
CCOC(=O)c1cc2c(C(=O)c3ccc([N+](=O)[O-])cc3)c(C(C)=O)ccc2[nH]1

>  <observed-value>
16.9 µM (inactive)

$$$$
>  <compound>
O=c1[nH]c(N/N=C\C(O)C(O)C(O)C(O)CO)nc2ccccc12 (stereo not given)

>  <observed-value>
> 100 µM (inactive)

$$$$
>  <compound>
CN(C)c1ccc(/C=N/NC2=N/C(=C\c3ccco3)C(=O)N2)cc1

>  <observed-value>
> 100 µM (inactive)

$$$$
>  <compound>
O=C(Cc1cc(=O)oc2cc(O)ccc12)N/N=C/c1ccc(N(CCCl)CCCl)cc1

>  <observed-value>
18.5 µM (inactive)

$$$$
>  <compound>
C[C@]12CC[C@H]3[C@@H](CC=C4C[C@@H](N5CCCC5)CC[C@@]43C)[C@@H]1C/C(=C\c1ccc([N+](=O)[O-])cc1)[C@@H]2O

>  <observed-value>
16.2 µM (inactive)

$$$$
>  <compound>
Nc1ccc(Oc2ccc(C34CC5CC6C3CC3CC4C(C5)C6(c4ccc(Oc5ccc(N)c(O)c5)cc4)C3)cc2)cc1O

>  <observed-value>
3.75 µM (inactive)

$$$$
>  <compound>
COc1c(NC(C)=O)c2ccccc2c2ccccc12

>  <observed-value>
> 100 µM (inactive)

$$$$
>  <compound>
CCc1ccc2nc(-c3ccc(O)cc3)sc2c1

>  <observed-value>
13.2 µM (inactive)

$$$$
>  <compound>
O=[N+]([O-])C(C(Cl)=C(Cl)Cl)=C(N(Cc1ccccc1)Cc1ccccc1)N(Cc1ccccc1)Cc1ccccc1

>  <observed-value>
70.6 µM (inactive)

$$$$
>  <compound>
O=[N+]([O-])C(/C=C(\Cl)[N+](=O)[O-])=C(N1CCCCC1)N1CCCCC1

>  <observed-value>
92 µM (inactive)

$$$$
>  <compound>
C=CCOc1ccc(C2(O)c3ccccc3C3=NCCCN32)cc1 (stereo not given)

>  <observed-value>
> 63 µM (inactive)

$$$$
>  <compound>
C=C(C)[C@H]1C2=CC(C(=O)OC)=C(C[C@H](C(=C)C)[C@@H](O)[C@@H](O)C3=C[C@H]1OC3=O)O2

>  <observed-value>
> 100 µM (inactive)

$$$$
>  <compound>
NC(=O)c1ncn2c(=O)n(CCCl)nnc12 [MITOZOLOMIDE]

>  <observed-value>
220 µM (inactive)

$$$$
>  <compound>
COC1C(=O)N(SC)C1c1ccccc1Cl (stereo not given)

>  <observed-value>
35.6 µM (inactive)

$$$$
>  <compound>
CCOC(=O)CC(=O)C(=O)NN=C1NCCCN1

>  <observed-value>
> 100 µM (inactive)

$$$$
>  <compound>
Cc1ccc2c(c1)C(=O)C(Cc1ccccc1C(=O)O)C2 (stereo not given)

>  <observed-value>
> 100 µM (inactive)

$$$$
